# measurement protocol: Cellular growth inhibition assay (CellTiter-Glo), Ba/F3 (Empty vector)
# Assay type: cell-based
# conditions used: mouse, Ba/F3 cells with empty vector; Ba/F3 (Empty vector) with 10 ng/ml rmIL-3, 3 days of incubation
Below, each of the compounds is paired with its reported CC50 at 3 days value.

COc1c(F)cccc1Nc1c2[nH]c3c1C(=O)NCC3CCCN1CC(COc3cnccc3-2)C1 (stereo not drawn) | > 10 µM
COc1c(F)cccc1Nc1c2[nH]c3c1C(=O)NCC3CCCOCCN(C)CCCOc1cnccc1-2 (stereo not drawn) | > 10 µM
COc1c(F)cccc1Nc1c2[nH]c3c1C(=O)NCC3C/C=C/COCCOc1cnccc1-2 (stereo not drawn) | > 10 µM

Look at this compound and give its reported CC50 at 3 days. COc1c(F)cccc1Nc1c2[nH]c3c1C(=O)NCC3CC(=O)N[C@@H](C)C(=O)NCCCOc1cnccc1-2 (stereo partly drawn)
> 10 µM

Find the recorded CC50 at 3 days belonging to COc1c(F)cccc1Nc1c2[nH]c3c1C(=O)NCC3CC(=O)N1CCN(CCOc3cnccc3-2)CC1 (stereo not drawn) and report it.
1 to 10 µM

Entry COc1c(F)cccc1Nc1c2[nH]c3c1C(=O)NCC3CCCCOCCOc1cnccc1-2 (stereo not drawn) : reported CC50 at 3 days = ?
> 10 µM

###

# measurement protocol: Cellular growth inhibition assay (CellTiter-Glo), Ba/F3 (Empty vector)
# Type: cell-based
# conditions used: mouse, Ba/F3 cells with empty vector; Ba/F3 (Empty vector) with 10 ng/ml rmIL-3, 3 days of incubation
# Source text: Example E. Cellular Growth Inhibition Assay […]
Measured CC50 at 3 days by item

Examples with answers:
COc1c(F)cccc1Nc1c2[nH]c3c1C(=O)NCC3CC=CCN1CCC(CC1)COc1cnccc1-2 (stereo not drawn) | > 10 µM
COc1c(F)cccc1Nc1c2[nH]c3c1C(=O)NC(CCCCOCCOc1cnccc1-2)C3 (stereo not drawn) | > 10 µM
COc1c(F)cccc1Nc1c2[nH]c3c1C(=O)NC[C@H]3CCCN1CCO[C@H](COc3cnccc3-2)C1 | 1 to 10 µM
COc1c(F)cccc1Nc1c2[nH]c3c1C(=O)NC(CC=CCOCCOc1cnccc1-2)C3 (stereo not drawn) | > 10 µM
COc1c(F)cccc1Nc1c2[nH]c3c1C(=O)NCC3CC(=O)NCC(=O)NCCCOc1cnccc1-2 (stereo not drawn) | > 10 µM

Switching to the query record.
Item COc1c(F)cccc1Nc1c2[nH]c3c1C(=O)NCC3CCCOCCNCCCOc1cnccc1-2 (stereo not drawn) has what recorded CC50 at 3 days?
> 10 µM
